# Target desc: Endothelial PAS domain-containing protein 1 (Homo sapiens)
# Procedure text: Agonist activity at human HIF-2alpha expressed in human 786-0 cells assessed as increase in NDRG1 transcription level at 20 uM incubated for 24 hrs by RT-PCR analysis relative to control
# Format: cell-based
# Condition notes: filed as agonist
Measured endpoint: Activity (%)

Please review the following examples before continuing.
Compound | Activity / %
[O-][s+]1cc(Nc2cc(C(F)(F)F)cc(C(F)(F)F)c2)c2ccccc21 (stereo not given) | 87.4
FC(F)(F)c1cc(Nc2csc3ccccc23)cc(C(F)(F)F)c1 | 92.1
O=S1(=O)N=C(Oc2cc(C(F)(F)F)cc(C(F)(F)F)c2)c2ccccc21 | 97.6
O=S1(=O)N=C(Nc2cc(C(F)(F)F)cc(C(F)(F)F)c2)c2ccccc21 | 272

[a] O=S1(=O)N=C(Nc2cc(F)cc(F)c2)c2ccccc21
[b] O=S1(=O)N=C(Nc2cccc(C(F)(F)F)c2)c2ccccc21
Decide: a or b , by lowest recorded Activity. Lab note: record the label of whichever item you select.
b

---

# Target desc: Aryl hydrocarbon receptor nuclear translocator/Endothelial PAS domain-containing protein 1 (Homo sapiens) (UniProt P27540+Q99814)
# Sequence (P27540 2-789 limits assumed): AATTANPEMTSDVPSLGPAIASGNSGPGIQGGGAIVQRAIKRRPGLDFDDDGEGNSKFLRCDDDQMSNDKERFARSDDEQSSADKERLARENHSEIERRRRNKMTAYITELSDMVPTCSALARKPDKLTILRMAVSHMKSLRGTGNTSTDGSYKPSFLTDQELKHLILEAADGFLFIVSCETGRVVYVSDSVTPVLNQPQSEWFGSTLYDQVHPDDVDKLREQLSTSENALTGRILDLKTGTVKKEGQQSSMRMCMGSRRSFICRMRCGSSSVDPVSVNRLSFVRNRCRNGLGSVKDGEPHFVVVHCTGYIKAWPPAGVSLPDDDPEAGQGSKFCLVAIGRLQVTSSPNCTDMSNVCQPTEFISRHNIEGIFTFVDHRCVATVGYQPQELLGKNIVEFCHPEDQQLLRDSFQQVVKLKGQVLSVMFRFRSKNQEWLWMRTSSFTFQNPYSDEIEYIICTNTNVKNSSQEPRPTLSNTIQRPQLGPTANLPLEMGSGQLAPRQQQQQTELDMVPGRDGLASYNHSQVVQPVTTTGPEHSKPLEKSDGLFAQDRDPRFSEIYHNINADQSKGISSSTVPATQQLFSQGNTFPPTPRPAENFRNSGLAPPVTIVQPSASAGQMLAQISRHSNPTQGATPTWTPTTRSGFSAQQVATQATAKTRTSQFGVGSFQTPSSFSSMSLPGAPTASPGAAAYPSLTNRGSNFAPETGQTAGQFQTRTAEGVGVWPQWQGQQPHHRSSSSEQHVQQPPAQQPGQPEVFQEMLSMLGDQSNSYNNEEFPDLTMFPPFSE
# Sequence (Q99814 whole entry partner, the tested form may be a part): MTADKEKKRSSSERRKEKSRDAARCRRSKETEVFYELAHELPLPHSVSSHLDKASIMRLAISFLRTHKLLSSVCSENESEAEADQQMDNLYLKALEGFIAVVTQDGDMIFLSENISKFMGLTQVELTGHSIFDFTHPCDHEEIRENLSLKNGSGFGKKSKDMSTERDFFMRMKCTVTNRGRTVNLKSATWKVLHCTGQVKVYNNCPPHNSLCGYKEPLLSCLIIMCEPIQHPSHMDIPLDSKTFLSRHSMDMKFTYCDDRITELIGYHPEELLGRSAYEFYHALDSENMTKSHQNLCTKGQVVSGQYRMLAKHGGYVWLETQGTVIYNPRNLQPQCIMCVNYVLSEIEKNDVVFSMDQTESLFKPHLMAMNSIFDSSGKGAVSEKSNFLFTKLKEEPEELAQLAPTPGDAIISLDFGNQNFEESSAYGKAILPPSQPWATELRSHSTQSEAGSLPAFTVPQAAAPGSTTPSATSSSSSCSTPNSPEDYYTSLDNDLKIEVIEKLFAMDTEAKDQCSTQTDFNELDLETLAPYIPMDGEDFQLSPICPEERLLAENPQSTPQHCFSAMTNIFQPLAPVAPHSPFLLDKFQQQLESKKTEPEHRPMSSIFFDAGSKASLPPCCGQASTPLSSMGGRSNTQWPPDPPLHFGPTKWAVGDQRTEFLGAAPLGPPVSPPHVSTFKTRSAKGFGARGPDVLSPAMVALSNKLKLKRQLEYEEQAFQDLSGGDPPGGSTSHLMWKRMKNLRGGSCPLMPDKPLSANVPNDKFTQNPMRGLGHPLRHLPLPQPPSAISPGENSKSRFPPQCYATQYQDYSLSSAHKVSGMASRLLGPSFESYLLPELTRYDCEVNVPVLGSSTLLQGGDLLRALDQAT
# Condition notes: filed as agonist, dose 10.0 µM
Measured endpoint: ΔTm (°C)

Chem smiles | Unit | ΔTm
O=S1(=O)N=C(Nc2cc(F)cc(F)c2)c2cc(Br)ccc21 | °C | 0.37

[a] O=S1(=O)N=C(Nc2cccc(F)c2F)c2ccccc21
[b] O=S1(=O)C=C(Nc2cc(C(F)(F)F)cc(C(F)(F)F)c2)c2ccccc21
[c] O=S1(=O)N=C(Nc2cc(F)cc(F)c2)c2ccc(Br)cc21
Please give the order of these compounds when sorted by ΔTm, largest value leading. Use the labels to give the ranking in the order requested.
b, c, a

---

# Target desc: Endothelial PAS domain-containing protein 1 (Homo sapiens)
# Procedure text: Agonist activity at human HIF-2alpha expressed in human 786-0 cells assessed as increase in NDRG1 transcription level at 20 uM incubated for 24 hrs by RT-PCR analysis relative to control
# Assay type: cell-based
# Condition notes: filed as agonist
Measured endpoint: Activity (%)

Please review the following examples before continuing.
Chem smiles | Activity (%)
O=S1(=O)N=C(Nc2ccc(C(F)(F)F)cc2)c2ccccc21 | 95.1
O=S1(=O)N=C(Nc2ccccc2)c2ccccc21 | 126

[a] O=S1(=O)N=C(Nc2cc(C(F)(F)F)cc(C(F)(F)F)c2)c2cc(Br)ccc21
[b] CN(C1=NS(=O)(=O)c2ccccc21)c1cc(C(F)(F)F)cc(C(F)(F)F)c1
Decide: a or b , by lowest recorded Activity. Lab note: record the label of whichever item you select.
b
(b: 96.6%, a: 432%)
